measure: IC50 (µM)
Provide only the numeric value, understood in µM.

QUERY: What IC50 appears in the records for this compound with JAK3 (Homo sapiens (Human), UniProt P52333)? C=CC(=O)N1CCC[C@H]1Cn1nc(-c2ccc(Oc3ccccc3)cc2)c2c(N)ncnc21
Sequence (P52333 whole entry, species assumed): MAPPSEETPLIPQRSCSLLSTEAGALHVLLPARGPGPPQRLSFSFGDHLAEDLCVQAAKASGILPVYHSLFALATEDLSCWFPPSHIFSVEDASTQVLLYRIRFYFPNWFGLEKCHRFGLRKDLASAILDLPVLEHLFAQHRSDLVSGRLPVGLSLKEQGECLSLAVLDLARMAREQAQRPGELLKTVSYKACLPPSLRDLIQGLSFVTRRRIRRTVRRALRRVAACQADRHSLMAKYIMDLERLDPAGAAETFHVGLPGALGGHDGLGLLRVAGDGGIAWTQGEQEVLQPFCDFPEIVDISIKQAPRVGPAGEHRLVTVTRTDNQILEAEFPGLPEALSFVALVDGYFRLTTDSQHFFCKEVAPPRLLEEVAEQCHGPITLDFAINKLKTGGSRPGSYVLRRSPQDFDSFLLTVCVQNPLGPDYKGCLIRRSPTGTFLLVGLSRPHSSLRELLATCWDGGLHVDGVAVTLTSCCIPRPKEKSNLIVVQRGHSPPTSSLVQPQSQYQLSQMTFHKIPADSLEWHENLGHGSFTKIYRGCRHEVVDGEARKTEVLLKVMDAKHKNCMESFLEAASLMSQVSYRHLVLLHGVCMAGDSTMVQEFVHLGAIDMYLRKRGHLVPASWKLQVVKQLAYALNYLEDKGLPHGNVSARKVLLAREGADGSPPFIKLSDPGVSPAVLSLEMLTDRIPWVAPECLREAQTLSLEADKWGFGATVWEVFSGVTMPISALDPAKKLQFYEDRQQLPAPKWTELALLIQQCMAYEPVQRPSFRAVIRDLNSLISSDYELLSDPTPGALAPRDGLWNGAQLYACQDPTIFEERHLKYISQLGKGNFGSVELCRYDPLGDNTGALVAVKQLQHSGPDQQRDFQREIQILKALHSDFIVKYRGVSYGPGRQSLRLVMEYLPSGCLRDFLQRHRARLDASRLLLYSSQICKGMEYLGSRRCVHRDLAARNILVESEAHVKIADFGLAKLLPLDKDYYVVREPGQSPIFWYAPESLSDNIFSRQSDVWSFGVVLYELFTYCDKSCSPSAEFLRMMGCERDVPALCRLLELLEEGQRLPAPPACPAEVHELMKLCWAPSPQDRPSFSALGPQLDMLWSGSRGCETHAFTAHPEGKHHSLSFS
RESULT: 1.46

QUERY: What IC50 appears in the records for this compound with JAK3 (Homo sapiens (Human), UniProt P52333)? C=CC(=O)N(C)CCn1nc(-c2ccc(Oc3ccccc3)cc2)c2c(N)ncnc21
RESULT: 6

QUERY: What IC50 appears in the records for this compound with JAK3 (Homo sapiens (Human), UniProt P52333)? C=CC(=O)NCCn1nc(-c2ccc(Oc3ccccc3)cc2)c2c(N)ncnc21
RESULT: 3.31

QUERY: What IC50 appears in the records for this compound with JAK3 (Homo sapiens (Human), UniProt P52333)? Nc1ncnc2c1c(-c1ccc(Oc3ccccc3)cc1)nn2[C@@H]1CCCN(C(=O)/C=C/CN2CCOCC2)C1
RESULT: 9.08

----------
method notes: glutathione binding assay
measurement setup: 5 mM glutathione, 10 μM Btk inhibitor, room temperature, HPLC
measure: Glutathione Conj Rate (nmol/min)
Provide only the numeric value, understood in nmol/min.

QUERY: # input compound: C=CC(=O)N1CCC(n2nc(-c3ccc(Oc4ccccc4)cc3)c3c(N)ncnc32)CC1 ; wanted: its Glutathione Conj Rate
RESULT: 0.39

QUERY: # input compound: CN(C)C/C=C/C(=O)N1CCC(n2nc(-c3ccc(Oc4ccccc4)cc3)c3c(N)ncnc32)CC1 ; wanted: its Glutathione Conj Rate
RESULT: 0.01

QUERY: # input compound: CN(C)C/C=C/C(=O)N1CCC[C@@H]1Cn1nc(-c2ccc(Oc3ccccc3)cc2)c2c(N)ncnc21 ; wanted: its Glutathione Conj Rate
RESULT: 0.004525

QUERY: # input compound: CC#CC(=O)N1CCC[C@@H](n2nc(-c3ccc(Oc4ccccc4)cc3)c3c(N)ncnc32)C1 ; wanted: its Glutathione Conj Rate
RESULT: 0.0243

QUERY: # input compound: CN(C)C/C=C/C(=O)N1CCC[C@H]1Cn1nc(-c2ccc(Oc3ccccc3)cc2)c2c(N)ncnc21 ; wanted: its Glutathione Conj Rate
RESULT: 0.004361

QUERY: # input compound: Nc1ncnc2c1c(-c1ccc(Oc3ccccc3)cc1)nn2C1CCCN(C(=O)/C=C/CN2CCOCC2)C1 (stereo not shown) ; wanted: its Glutathione Conj Rate
RESULT: 0.004

QUERY: # input compound: CC#CC(=O)N[C@H]1CC[C@@H](n2nc(-c3ccc(Oc4ccccc4)cc3)c3c(N)ncnc32)CC1 ; wanted: its Glutathione Conj Rate
RESULT: 0.014

----------
I'd appreciate it if you could supply pIC50 values for the items below.
Recall that pIC50 is obtained by taking minus log10 of the concentration measured in molar.

QUERY: What pIC50 appears in the records for this molecule with ITK (Homo sapiens (Human), UniProt Q08881)? C=CC(=O)N[C@H]1CC[C@H](n2nc(-c3ccc(Oc4ccccc4)cc3)c3c(N)ncnc32)CC1
Sequence (Q08881 whole entry, species assumed): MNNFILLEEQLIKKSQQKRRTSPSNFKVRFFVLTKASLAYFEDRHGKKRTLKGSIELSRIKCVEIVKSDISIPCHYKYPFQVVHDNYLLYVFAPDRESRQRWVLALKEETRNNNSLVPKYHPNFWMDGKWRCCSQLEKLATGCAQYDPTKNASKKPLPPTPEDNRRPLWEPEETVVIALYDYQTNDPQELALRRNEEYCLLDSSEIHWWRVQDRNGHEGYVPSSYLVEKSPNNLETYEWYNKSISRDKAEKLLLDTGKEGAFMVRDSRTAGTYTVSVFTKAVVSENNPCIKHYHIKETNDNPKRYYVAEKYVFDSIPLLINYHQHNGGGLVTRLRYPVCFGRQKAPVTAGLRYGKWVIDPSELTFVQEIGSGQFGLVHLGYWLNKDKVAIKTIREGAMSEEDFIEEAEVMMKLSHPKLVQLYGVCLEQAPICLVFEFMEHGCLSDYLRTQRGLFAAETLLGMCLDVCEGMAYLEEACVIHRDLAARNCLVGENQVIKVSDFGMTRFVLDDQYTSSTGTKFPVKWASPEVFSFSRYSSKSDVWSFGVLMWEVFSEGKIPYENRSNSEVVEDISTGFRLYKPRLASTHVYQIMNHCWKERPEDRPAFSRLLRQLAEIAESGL
RESULT: 5.71

QUERY: What pIC50 appears in the records for this molecule with ITK (Homo sapiens (Human), UniProt Q08881)? CC#CC(=O)N1CCC[C@@H]1Cn1nc(-c2ccc(Oc3ccccc3)cc2)c2c(N)ncnc21
RESULT: 4.68

QUERY: What pIC50 appears in the records for this molecule with ITK (Homo sapiens (Human), UniProt Q08881)? Nc1ncnc2c1c(-c1ccc(Oc3ccccc3)cc1)nn2C1CCN(C(=O)/C=C/CN2CCOCC2)CC1
RESULT: 5.10

QUERY: What pIC50 appears in the records for this molecule with ITK (Homo sapiens (Human), UniProt Q08881)? C=CC(=O)N1CCC[C@@H]1Cn1nc(-c2ccc(Oc3ccccc3)cc2)c2c(N)ncnc21
RESULT: 5.52

QUERY: What pIC50 appears in the records for this molecule with ITK (Homo sapiens (Human), UniProt Q08881)? Nc1ncnc2c1c(-c1ccc(Oc3ccccc3)cc1)nn2[C@@H]1CCCN(C(=O)/C=C/CN2CCOCC2)C1
RESULT: 6.32

QUERY: What pIC50 appears in the records for this molecule with ITK (Homo sapiens (Human), UniProt Q08881)? C=CC(=O)NCCn1nc(-c2ccc(Oc3ccccc3)cc2)c2c(N)ncnc21
RESULT: 6.08

----------
I'd appreciate it if you could supply pIC50 values for the items below.
pIC50: −log10 of the molar value.

QUERY: What pIC50 appears in the records for this compound with JAK3 (Homo sapiens (Human))? Nc1ncnc2c1c(-c1ccc(Oc3ccccc3)cc1)nn2C1CCN(C(=O)/C=C/CN2CCOCC2)CC1
RESULT: < 5.00

QUERY: What pIC50 appears in the records for this compound with JAK3 (Homo sapiens (Human))? Nc1ncnc2c1c(-c1ccc(Oc3ccccc3)cc1)nn2[C@H]1CC[C@@H](NC(=O)/C=C/CN2CCOCC2)CC1
RESULT: < 5.00

QUERY: What pIC50 appears in the records for this compound with JAK3 (Homo sapiens (Human))? CC#CC(=O)N[C@H]1CC[C@@H](n2nc(-c3ccc(Oc4ccccc4)cc3)c3c(N)ncnc32)CC1
RESULT: < 5.00
